target desc: T1, IL-18 receptor (IL-18Rα/IL-18Rβ) on cells (HEK-Blue IL18R reporter cells, NK-92, KG-1) (human, UniProt Q13478 19-541; O95256 20-599)
T1 sequence (looked up) 1: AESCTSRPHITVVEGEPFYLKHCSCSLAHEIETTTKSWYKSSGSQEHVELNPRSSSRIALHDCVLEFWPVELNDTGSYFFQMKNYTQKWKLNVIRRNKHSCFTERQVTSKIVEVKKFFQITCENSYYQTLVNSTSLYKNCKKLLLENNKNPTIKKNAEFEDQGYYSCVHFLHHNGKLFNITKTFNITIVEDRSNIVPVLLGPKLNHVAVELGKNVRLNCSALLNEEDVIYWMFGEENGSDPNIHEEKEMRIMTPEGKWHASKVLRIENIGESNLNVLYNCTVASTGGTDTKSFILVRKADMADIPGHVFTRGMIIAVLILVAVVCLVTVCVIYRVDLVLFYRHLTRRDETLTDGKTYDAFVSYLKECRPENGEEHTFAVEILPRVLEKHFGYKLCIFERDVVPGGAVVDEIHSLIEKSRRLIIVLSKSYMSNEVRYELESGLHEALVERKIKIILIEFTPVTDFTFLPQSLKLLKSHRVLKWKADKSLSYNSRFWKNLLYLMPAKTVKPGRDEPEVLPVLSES
T1 sequence (looked up) 2: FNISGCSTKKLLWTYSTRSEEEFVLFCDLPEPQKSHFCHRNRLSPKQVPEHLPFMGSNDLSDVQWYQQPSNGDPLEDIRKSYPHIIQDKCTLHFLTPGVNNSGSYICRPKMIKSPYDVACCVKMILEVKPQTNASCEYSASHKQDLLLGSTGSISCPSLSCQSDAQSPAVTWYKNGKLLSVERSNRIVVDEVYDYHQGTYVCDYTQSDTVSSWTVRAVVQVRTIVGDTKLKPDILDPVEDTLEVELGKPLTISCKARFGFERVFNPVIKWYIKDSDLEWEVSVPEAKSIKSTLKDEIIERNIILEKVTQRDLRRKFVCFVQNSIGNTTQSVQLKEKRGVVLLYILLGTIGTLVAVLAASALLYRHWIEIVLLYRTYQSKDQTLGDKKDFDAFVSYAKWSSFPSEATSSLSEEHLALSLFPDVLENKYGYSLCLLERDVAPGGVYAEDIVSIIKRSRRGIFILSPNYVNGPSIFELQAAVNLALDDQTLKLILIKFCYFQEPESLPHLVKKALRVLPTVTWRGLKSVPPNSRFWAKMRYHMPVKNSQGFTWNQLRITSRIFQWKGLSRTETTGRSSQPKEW
experiment: cell-based or functional assay
# EC50, IFNγ stimulation, NK92 cells per record follows
The reply should contain only the number, in nM.

IL-18 polypeptide of SEQ ID NO: 48 (C38S, C68S, C76S, C127S, K70C) (ligand) YFGKLESKLSVIRNLNDQVLFIDQGNRPLFEDMTDSDSRDNAPRTIFIISMYKDSQPRGMAVTISVKSECISTLSSENKIISFKEMNPPDNIKDTKSDIIFFQRSVPGHDNKMQFESSSYEGYFLASEKERDLFKLILKKEDELGDRSIMFTVQNED    0.488

Field: next binder
Fill in: EC50, IFNγ stimulation, NK92 cells of IL-18 polypeptide C165 (ligand, also called V11I, C38A, S55R, C76A, C127A) YFGKLESKLSIIRNLNDQVLFIDQGNRPLFEDMTDSDARDNAPRTIFIISMYKDRQPRGMAVTISVKCEKISTLSAENKIISFKEMNPPDNIKDTKSDIIFFQRSVPGHDNKMQFESSSYEGYFLAAEKERDLFKLILKKEDELGDRSIMFTVQNED is ___
0.176
